Molecular target: PLK1 (Homo sapiens, UniProt P53350)
Construct: Full-length, active GST-PLK1 is purified from Sf9 insect cells; made in house; host or cells: Sf9 insect cells
Sequence (P53350 whole entry): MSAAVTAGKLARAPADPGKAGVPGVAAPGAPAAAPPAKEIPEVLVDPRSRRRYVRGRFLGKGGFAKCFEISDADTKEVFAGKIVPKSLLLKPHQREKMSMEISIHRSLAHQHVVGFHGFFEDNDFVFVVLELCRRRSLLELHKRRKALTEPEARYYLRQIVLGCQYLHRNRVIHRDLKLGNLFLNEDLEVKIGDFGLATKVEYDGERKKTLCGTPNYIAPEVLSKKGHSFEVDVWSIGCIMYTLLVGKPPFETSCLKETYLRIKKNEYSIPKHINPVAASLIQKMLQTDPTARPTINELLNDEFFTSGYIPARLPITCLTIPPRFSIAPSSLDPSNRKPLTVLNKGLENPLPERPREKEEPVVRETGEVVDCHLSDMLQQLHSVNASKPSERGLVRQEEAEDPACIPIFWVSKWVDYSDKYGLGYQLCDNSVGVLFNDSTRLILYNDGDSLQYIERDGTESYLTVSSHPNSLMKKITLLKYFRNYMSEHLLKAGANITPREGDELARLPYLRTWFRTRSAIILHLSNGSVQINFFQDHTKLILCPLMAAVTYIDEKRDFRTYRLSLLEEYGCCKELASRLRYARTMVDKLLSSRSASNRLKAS
Test: Biochemical Characterization Assay: HTRF kinase assay, GST-PLK1 phosphorylation of GST-p53
Conditions: GST-PLK1, GST-p53 substrate, ATP
pIC50: −log10 of the molar value.
ASSAY METRIC: pIC50

Consider the worked cases shown below.
| MOLECULE | pIC50 |
| --- | --- |
| COc1cc(C(=O)NCCc2c[nH]c3ccccc23)ccc1Nc1ncc2c(n1)N(C1CCCC1)CC(F)(F)C(=O)N2C | 6.30 to 7.29 |
| COc1cc(C(=O)NC2CCN(C)CC2)ccc1Nc1ncc2c(n1)N(C1CCCC1)CC(F)(F)C(=O)N2 | 6.30 to 7.29 |
| CCCN1C(=O)C(F)(F)CN(C2CCCC2)c2nc(Nc3ccc(C(=O)NC4CCN(C)CC4)cc3)ncc21 | 6.30 to 7.29 |

The recorded pIC50 for entry COc1cc(C(=O)NC2CCN(C3CCCC3)CC2)ccc1Nc1ncc2c(n1)N(C1CCCC1)CC(F)(F)C(=O)N2C equals 7.30 to 9.00
